# Assay Target: TetR (Escherichia coli, UniProt P04483)
# Method Notes: biochemical
pEC50: −log10 of the molar value.
Observed Property: pEC50

stdin: # pEC50 lookup, item Cc1c2c(c(O)c3c(O)cccc13)C(=O)[C@]1(O)C(=O)C(C(N)=O)=C(O)[C@@H](N(C)C)[C@@H]1C2 [aTc, anhydrotetracycline]
stdout: 5.30 to 5.60
